- subject of test: Prostaglandin E synthase (Homo sapiens, UniProt O14684)
- Sequence (O14684 whole entry): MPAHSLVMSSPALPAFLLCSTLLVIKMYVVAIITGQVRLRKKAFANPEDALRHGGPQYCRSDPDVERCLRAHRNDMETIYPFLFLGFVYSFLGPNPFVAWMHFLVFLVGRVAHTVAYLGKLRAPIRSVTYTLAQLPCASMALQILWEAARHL
- assay text: Inhibition of mPGES-1-mediated PGE2 formation in IL-1beta-stimulated human A549 cells preincubated for 10 mins measured after 1 min by RP-HPLC analysis
// values below are reported pIC50
Reminder that pIC50 is minus the log10 of a molar concentration.

>  <molecule>
O=C1OC(O)C(c2ccc(C(=O)Nc3ccccc3)cc2)=C1Br (stereo not drawn)

>  <measured number>
6.05

$$$$

Task: What pIC50 value was documented for this molecule, O=C1OC(O)C(c2ccc(C(=O)NCc3ccccc3)cc2)=C1Br (stereo not drawn) ?
Result: 5.25
